# stated.conditions: in THF, 308.15 K
measure.name: solubility (mole fraction)
Answer using only a numeral; do not append any unit.

`O=C(O)c1ccc(Br)cn1` has a reported solubility (mole fraction) of 0.0663

* * *

# stated.conditions: in acetonitrile, 303.15 K
measure.name: solubility (mole fraction)
Answer using only a numeral; do not append any unit.

`O=C(O)c1ccc(Br)cn1` has a reported solubility (mole fraction) of 0.00449

* * *

# stated.conditions: in 1,4-dioxane, 303.15 K
measure.name: solubility (mole fraction)
Answer using only a numeral; do not append any unit.

`O=C(O)c1ccc(Br)cn1` has a reported solubility (mole fraction) of 0.0502

* * *

# stated.conditions: in 1,4-dioxane, 323.15 K
measure.name: solubility (mole fraction)

`O=C(O)c1ccc(Br)cn1` has a reported solubility (mole fraction) of 0.0831
